system.under.test: Corticotropin-releasing factor receptor 1 (Homo sapiens, UniProt P34998)
Sequence (P34998 whole entry): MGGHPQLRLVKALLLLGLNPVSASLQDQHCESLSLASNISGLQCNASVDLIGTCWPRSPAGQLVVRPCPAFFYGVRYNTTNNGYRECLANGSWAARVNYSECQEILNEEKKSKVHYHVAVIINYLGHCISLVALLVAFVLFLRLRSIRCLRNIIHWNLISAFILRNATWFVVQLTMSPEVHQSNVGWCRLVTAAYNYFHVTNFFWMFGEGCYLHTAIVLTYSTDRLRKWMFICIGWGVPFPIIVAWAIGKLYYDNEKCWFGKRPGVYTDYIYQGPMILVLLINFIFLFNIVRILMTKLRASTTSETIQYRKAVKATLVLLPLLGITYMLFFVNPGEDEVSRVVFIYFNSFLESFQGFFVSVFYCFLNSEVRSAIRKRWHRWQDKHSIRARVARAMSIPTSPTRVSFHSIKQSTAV
measurement.description: Displacement of [125I]sauvagine from human recombinant CRF1 receptor expressed in CHO cells by SPA
List of IC50 values.
Write the number in nM without appending the unit.

{"columns": ["structure.notation", "value.unit", "IC50"],
 "data": [
  ["COc1ccc(N2CCc3c(-n4ccc(-c5nccs5)n4)cc(C)nc32)c(OC)n1", "nM", 214],
  ["COc1ccc(N2CCc3c(-n4ccc(-c5nccs5)n4)cc(C)nc32)c(OC)c1", "nM", 174],
  ["Cc1cc(-n2ccc(-c3ccccn3)n2)c2c(n1)N(c1ccc(C#N)cc1C)CC2", "nM", 224],
  ["CCc1cc(C#N)ccc1N1CCc2c(-n3ccc(-c4nccs4)n3)cc(C)nc21", "nM", 126],
  ["Cc1cc(-n2ccc(-n3cccn3)n2)c2c(n1)N(c1ccc(C#N)cc1C(F)(F)F)CC2", "nM", 145]
]}

Now take the following molecule into account.
Fill in: IC50 on Corticotropin-releasing factor receptor 1 (Homo sapiens, UniProt P34998), entry Cc1cc(-n2ccc(-c3nccs3)n2)c2c(n1)N(c1ccc(F)cc1C)CC2
162
